- target_entity: CaMKIV(h) (Homo sapiens)
- Sequence (Q16566 whole entry): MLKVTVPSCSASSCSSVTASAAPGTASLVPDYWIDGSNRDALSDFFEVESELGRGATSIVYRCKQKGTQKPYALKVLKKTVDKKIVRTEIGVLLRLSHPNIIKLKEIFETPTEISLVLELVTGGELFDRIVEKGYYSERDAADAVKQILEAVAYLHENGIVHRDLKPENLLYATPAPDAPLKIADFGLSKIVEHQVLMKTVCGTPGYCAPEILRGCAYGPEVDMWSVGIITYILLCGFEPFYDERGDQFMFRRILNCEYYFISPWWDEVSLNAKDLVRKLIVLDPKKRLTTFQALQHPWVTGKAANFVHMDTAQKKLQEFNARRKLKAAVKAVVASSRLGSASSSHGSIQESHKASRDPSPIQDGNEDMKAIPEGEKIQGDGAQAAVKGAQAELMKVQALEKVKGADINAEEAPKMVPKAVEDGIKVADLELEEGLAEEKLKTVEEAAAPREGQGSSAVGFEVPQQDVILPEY
- protocol_notes: Protein kinase selectivity panel
- Assay type: biochemical
- experimental_parameters: 1.0 μM compound, 10 μM ATP
parameter_measured: Activity at Protein Kinase Assays (% of control), CaMKIV(h)

smiles_code | assay_value
CN(C)c1nc2ccc1CCCCn1cc(c3ccccc31)C1=C(C(=O)NC1=O)c1cn(c3ccccc13)CCC2 | 92 % of control
O=C1NC(=O)C2=C1c1cn(c3ccccc13)CCCc1ccc(c(N3CCCC3)n1)CCCn1cc2c2ccccc21 | 99 % of control
CN(C)c1cc2cc(n1)CCCn1cc(c3ccccc31)C1=C(C(=O)NC1=O)c1cn(c3ccccc13)CCC2 | 113 % of control
O=C1NC(=O)C2=C1c1cn(c3ccccc13)CCCc1cc(nc(N3CCCC3)c1)CCCn1cc2c2ccccc21 | 112 % of control
